Record form. Attribute: GI50. Fill in for each entry.
Please reply with the bare figure in µM and do not write the unit itself.

Give recorded GI50 with HCT-15 for the following compound: `COc1cc(-c2ccc(/N=N/c3c(S(=O)(=O)O)cc4cc(S(=O)(=O)O)cc(N)c4c3O)c(OC)c2)ccc1/N=N/c1c(S(=O)(=O)O)cc2cc(S(=O)(=O)O)cc(N)c2c1O` 59.6

For HCT-15, provide GI50 of CCC12CCCN(Cc3ccccc3)C1c1c(n(C)c3ccccc13)C(C(=O)OC)C2 (stereo not given) please. 70.3

What value of GI50 on HCT-15 does CC(=O)O[C@H]1C(=O)[C@@]2(C)C(C(OC(=O)c3ccccc3)[C@]3(O)CC(OC(=O)C(O)C(NC(=O)c4ccc(C(F)(F)F)cc4)c4ccccc4)C(C)=C1C3(C)C)[C@]1(OC(C)=O)CO[C@@H]1C[C@@H]2O (stereo not given in full) have? 4.97

Any idea what GI50 came out for CC1CC(C)C2OC2(C)C[C@H](C)C(=O)NC(C)C(=O)N(C)[C@H](Cc2c(Br)[nH]c3ccccc23)C(=O)N[C@@H](c2ccc(O)cc2)CC(=O)O1 (stereo not given in full) on HCT-15? 39.3

Find the measured GI50: item `O=C(CSc1nnc(-c2ccc(/N=C\c3ccc(Cl)cc3)cc2)o1)Nc1ccccc1` , target or system HCT-15. 68.2

I'm curious: which GI50 was measured for `Cc1nn2c(=O)c([N+](=O)[O-])c(/C=C/c3ccco3)nc2s1` tested on HCT-15? 41.5

// lookup GI50 | system=HCT-15 | key= `COc1ccc(C[C@H]2COC(=O)[C@@H]2Cc2ccc(Br)cc2)cc1OC` 17.3

Value wanted: GI50 (HCT-15) of entry Cc1ccc(S(=O)(=O)C2=Cc3ccc(C(F)(F)F)cc3C2(O)c2cccc(C(F)(F)F)c2)cc1 (stereo not given) 1.95

Observed GI50 on HCT-15 for `COc1ccc(/C=N/N=C(\N)NO)cc1OC` , please. 75.2

Any idea what GI50 came out for `CCN(CC)S(=O)(=O)c1ccc2[nH]c(NC(=O)OC)nc2c1` on HCT-15? 47.2

Can you look up GI50 on HCT-15 for `N#Cc1nc(Sc2cnsn2)c(Sc2cnsn2)nc1C#N` ? 6.68

API: value(readout=GI50, system=HCT-15) for record `O=[N+]([O-])/C(C(Cl)=C(Cl)Cl)=C(\N1CCOCC1)n1nnc2ccccc21` 15.4

Param readout= GI50; system= HCT-15; entry= `COc1ccc(-c2cc(O)c3c(C)cc(C)nc3n2)cc1` ; returns value. 24.4

Form entry - test system: HCT-15; read-out: GI50; compound: O=C1CSC2(CC(/C=C/c3cccc([N+](=O)[O-])c3)=NN2c2cccc(S(=O)(=O)O)c2)N1c1nc2ccccc2s1 (stereo not given) 18.1

Lab note: need GI50 with HCT-15 for entry `N#CSC#CCCC#CSC#N` , please look it up. 18.2

// fetch HCT-15 GI50 for `O=C(Nc1cccc(C(F)(F)F)c1)O/N=C(/Cl)CCl` 46.3

Find the measured GI50: item COC12OC3CC4(C)C(=CC3OC(OC(C)C1O)C2O)CCC1C4CCC2(C)C(c3ccc(=O)oc3)CCC12O (stereo not given) , target or system HCT-15. 0.00216

Recorded GI50 for CCOC(=O)CCC1(C(=O)OCC)CCCC1=O (stereo not given) with HCT-15, please? 78.3

Find GI50 (HCT-15) for the entry COc1ccc(/C=C2\CCCC(C(NO)c3ccc(OC)cc3)C2=NO)cc1 (stereo not given) 35.6

Please tell me: GI50 of Cc1ccc2[nH]c3c(c2c1)C1CCC(C(C)(C)C)CC1C1C(=O)N(c2ccc4c(c2)OCO4)C(=O)C31 (stereo not given) , system HCT-15? 5.21

Requested read-out GI50, target or system HCT-15, entry `Cc1ccc2nc3cc(C)c(=O)cc-3sc2c1` 52.8

FYI, the data here is from ChEMBL document CHEMBL1201862.
